details: in ethanol, 283.15 K

structure smiles string	solubility (mole fraction)
C=C[C@]1(C)C[C@@H](OC(=O)CSC(C)(C)CNC(=O)[C@H](N)C(C)C)[C@]2(C)[C@H](C)CC[C@]3(CCC(=O)[C@H]32)[C@@H](C)[C@@H]1O.Cl	0.038

====

conditions: in ethanol, 313.15 K

structure smiles string	solubility (mole fraction)
C=C[C@]1(C)C[C@@H](OC(=O)CSC(C)(C)CNC(=O)[C@H](N)C(C)C)[C@]2(C)[C@H](C)CC[C@]3(CCC(=O)[C@H]32)[C@@H](C)[C@@H]1O.Cl	0.101

====

conditions: in ethanol, 293.15 K

structure smiles string	solubility (mole fraction)
C=C[C@]1(C)C[C@@H](OC(=O)CSC(C)(C)CNC(=O)[C@H](N)C(C)C)[C@]2(C)[C@H](C)CC[C@]3(CCC(=O)[C@H]32)[C@@H](C)[C@@H]1O.Cl	0.0506
